For each of the compounds below, state its Polyglutamine.
- Test system: polyglutamine luciferase reporter
- TEST DETAILS: Screening: polyglutamine luciferase reporter assay in NUGC3 cells (luminescence % of DMSO)
- Format: cell-based, human
- CONDITION DETAILS: NUGC3 cells; luminescence relative to DMSO; concentration not given
One number for each entry, in %.

Cc1ccc(C2=NC(S(=O)(=O)c3ccccc3)C(c3ccccc3C)C2)cc1 (stereo not shown)
79.16
CCc1cccc(C2CC(c3ccc(C)cc3)=NC2S(=O)(=O)c2ccc(C)cc2)c1CC (stereo not shown) [PVZF0069]
46.34
CCc1cccc(C2CC(c3ccc(C)cc3)=NC2S(=O)(=O)c2ccc(C)cc2)c1CC (stereo not shown) [PVZF0057]
50.71

Now examine the next entry.
Polyglutamine reading for CCc1ccc(C2=NC(S(=O)(=O)c3ccccc3)C(c3cccc(CC)c3CC)C2)cc1CC (stereo not shown) : 71.62

----------
Can you tell me 8×GTIIC for the items I'm about to list?
- Tested on: YAP/TAZ
- TEST DETAILS: Screening: YAP/TAZ activity reporter (8xGTIIC plasmid) assay in NUGC3 cells (luminescence % of DMSO)
- Assay type: cell-based, human
- CONDITION DETAILS: YAP/TAZ activity reporter (8×GTIIC), NUGC3 cells, luminescence relative to DMSO; concentration not given
Answers are plain numbers, in %.

CCc1ccc(S(=O)(=O)C2CCC(CS(=O)(=O)c3cc(C)cc(C)c3)CC2)cc1 (stereo not shown)
70.64
CCCC(=O)C1CCC(CS(=O)(=O)c2ccc(C)c(C)c2)CC1 (stereo not shown)
46.21
CC(C)(C)c1ccc(S(=O)(=O)CCCC2CCCCC2)cc1
34.4
Cc1ccc(S(=O)(=O)CC2CC(C)(C)CC(C)(C)C2)cc1C(F)(F)F
74.98
CCS(=O)(=O)C1CCC(CS(=O)(=O)c2cc(C(C)C)cc(C)c2C)CC1 (stereo not shown)
66.59
Cc1cc(C)c(S(=O)(=O)CC2CC(C)(C)CC(C)(C)C2)cc1C [SA009]
80.29

I would be grateful if you could provide 8×GTIIC for each of the following entries.
1. Cc1ccc(S(=O)(=O)CC2CCC(C3CC3)CC2)c(C)c1 (stereo not shown) [SA035]
2. Cc1cc(C(C)C)cc(S(=O)(=O)CC2CCC(S(C)(=O)=O)CC2)c1C (stereo not shown)

Response:
1. 116.6
2. 95.87

Dear reader, for each entry below, please note its 8×GTIIC.
1. Cc1cc(C(C)(C)C)cc(C)c1S(=O)(=O)CC1CCC(C2CC2)CC1 (stereo not shown)
2. CCC(C)(C)c1ccc(S(=O)(=O)CCc2ccccc2)cc1
3. CC(C)c1ccc(S(=O)(=O)CC2CCC(C3CC3)CC2)cc1 (stereo not shown)
4. Cc1cc(C)c(S(=O)(=O)CC2CC(C)(C)CC(C)(C)C2)cc1C [SA007]
5. O=S(=O)(CC1CCC(C2CC2)CC1)c1ccc2c(c1)CCCC2 (stereo not shown) [SA038]

Response:
55.02
79.61
35.45
56.96
94.4

// batch mode: one 8×GTIIC value per listed entry
1. Cc1ccc(S(=O)(=O)CC2CCC(C3CC3)CC2)cc1C (stereo not shown) [SA055]
2. CC(C)(C)c1cc(C(C)(C)C)cc(S(=O)(=O)CC2CCC(C3CC3)CC2)c1 (stereo not shown)
3. Cc1ccc(S(=O)(=O)C2CCC(CS(=O)(=O)c3ccccc3)CC2)cc1 (stereo not shown)

Response:
[82.18, 64.4, 51.54]

# batch size: 3; output 8×GTIIC per entry
1. CCc1ccc(C2=CC(C(C)=O)C(c3ccc(CC)c(C)c3)C2)cc1 (stereo not shown)
2. CCCCCCS(=O)(=O)c1ccc(C(C)(C)CC)cc1
3. Cc1c(C)c(C)c(S(=O)(=O)CC2CCC(C3CC3)CC2)c(C)c1C (stereo not shown)

Response:
1. 160.5
2. 56.84
3. 35.53

// for each compound below, give its 8×GTIIC
1. CC(C)c1cc(C(C)C)c(S(=O)(=O)CCc2ccccc2)c(C(C)C)c1
2. CCC(C)(C)c1ccc(S(=O)(=O)CC2CCCCC2)cc1

Response:
[58.43, 60]

For each of the items listed, what is its 8×GTIIC?
1. Cc1ccc(S(=O)(=O)CC2CCC(S(C)(=O)=O)CC2)cc1 (stereo not shown) [SA062]
2. CCCCCCS(=O)(=O)c1ccc2ccccc2c1
3. O=S(=O)(CC1CCC(C2CC2)CC1)c1ccc(C(F)(F)F)cc1 (stereo not shown)
4. O=S(=O)(CC1CCC(S(=O)(=O)c2ccccc2)CC1)c1ccccc1 (stereo not shown)
5. CC(C)(C)Cc1ccccc1S(=O)(=O)CC1CCC(C2CC2)CC1 (stereo not shown)
6. Cc1ccc(S(=O)(=O)CC2CCC(S(C)(=O)=O)CC2)c(C(C)(C)C)c1 (stereo not shown)
7. Cc1ccc(C)c(S(=O)(=O)CC2CCC(C3CC3)CC2)c1 (single isomer, unassigned) [SA005]
8. Cc1ccc(C)c(S(=O)(=O)CC2CCC(C3CC3)CC2)c1 (stereo not shown) [SA052]

Response:
1. 100.9
2. 36.2
3. 96.16
4. 43.7
5. 50.1
6. 83.09
7. 90.78
8. 54.65

Give 8×GTIIC for each listed item.
1. CCCc1cc(S(=O)(=O)CC2CC(C)(C)CC(C)(C)C2)ccc1C
2. CS(=O)(=O)C1CCC(CS(=O)(=O)c2ccc3c(c2)CCCC3)CC1 (stereo not shown) [SA046]

Response:
1: 67.54; 2: 83.81

For each of the items listed, what is its 8×GTIIC?
1. O=S(=O)(CC1CCC(S(=O)(=O)C2CCCCC2)CC1)c1ccccc1 (stereo not shown)
2. O=S(=O)(CC1CCCCC1)c1ccccc1
3. CCCc1ccc(S(=O)(=O)CC2CCC(C3CC3)CC2)cc1 (stereo not shown)
4. Cc1cccc(S(=O)(=O)CC2CCC(C3CC3)CC2)c1 (stereo not shown) [SA054]
5. CCCCCCS(=O)(=O)c1ccccc1
6. O=C(CCCCc1ccccc1)C1CCC(CS(=O)(=O)c2ccccc2)CC1 (stereo not shown)
7. CS(=O)(=O)C1CCC(CS(=O)(=O)c2ccc3c(c2)CCCC3)CC1 (stereo not shown) [SA065]

Response:
[138.5, 69.86, 56.65, 83.34, 63.56, 91.92, 39.43]

// each listed compound needs a value for 8×GTIIC
1. Cc1c(C)c(C)c(S(=O)(=O)CC2CC(C)(C)CC(C)(C)C2)c(C)c1C
2. CC(=O)C1C=C(c2ccccc2)CC1c1ccc2ccccc2c1 (stereo not shown)

Response:
1. 59.49
2. 95.65

----------
Assignment: determine reported 8×GTIIC for the given molecules.
- System: YAP/TAZ
- TEST DETAILS: Screening: YAP/TAZ activity reporter (8xGTIIC plasmid) assay in NUGC3 cells (luminescence % of DMSO)
- Format: cell-based, human
- CONDITION DETAILS: NUGC3 cells; luminescence relative to DMSO; concentration not given
Numbers only, in %.

Cc1ccc(C2=NC(S(=O)(=O)c3ccccc3)C(c3ccccc3C)C2)cc1 (stereo not shown) [PVZF0074]
96.63

Your task in this section: give 8×GTIIC for each listed record.
1. CCc1cccc(C2CC(c3ccc(C)cc3)=NC2S(=O)(=O)c2ccc(C)cc2)c1CC (stereo not shown) [PVZF0057]
2. CCc1ccc(C2CC(c3ccc(C)cc3)=NC2S(=O)(=O)c2ccccc2)cc1CC (stereo not shown) [PVZF0066]
3. CCc1cccc(C2CC(c3cccc(C)c3)=NC2S(=O)(=O)c2ccccc2C)c1CC (stereo not shown) [PVZF0058]

Response:
1. 61.81
2. 65.56
3. 66.66

----------
- System: polyglutamine luciferase reporter
- TEST DETAILS: Screening: polyglutamine luciferase reporter assay in NUGC3 cells (luminescence % of DMSO)
- Type: cell-based, human
- CONDITION DETAILS: NUGC3 cells; luminescence relative to DMSO; concentration not given
Assign Polyglutamine to each entry below.

CCc1cc(CC)cc(C2=NC(S(=O)(=O)c3ccc(C)cc3)C(c3cccc(CC)c3CC)C2)c1 (stereo not drawn)
46.42%
Cc1ccc(C2=NC(S(=O)(=O)c3ccccc3)C(c3ccc(C)cc3)C2)cc1 (stereo not drawn) [PVZF0096]
73.68%

Turning now to a further compound:
Just so you know, measured Polyglutamine for CCc1ccc(C2CC(c3ccc(C)cc3)=NC2S(C)(=O)=O)cc1 (stereo not drawn) came out at 57.89%

----------
- System: polyglutamine luciferase reporter
- TEST DETAILS: Screening: polyglutamine luciferase reporter assay in NUGC3 cells (luminescence % of DMSO)
- Assay type: cell-based, human
- CONDITION DETAILS: NUGC3 cells; luminescence relative to DMSO; concentration not given
Entries whose Polyglutamine is below 60% take 1.0; entries at or above 60% take 0.0.

Some solved cases for reference:
CCc1cccc(C2CC(c3ccccc3)=NC2S(=O)(=O)c2ccccc2)c1CC (stereo not drawn)
1.0
Cc1ccc(C2=NC(S(=O)(=O)c3ccccc3C)C(c3cccc(C)c3)C2)cc1 (stereo not drawn)
1.0
Cc1ccc(C2=NC(S(C)(=O)=O)C(c3ccc(C)cc3)C2)cc1 (stereo not drawn)
0.0
CCc1cccc(C2CC(c3cccc(C)c3)=NC2S(=O)(=O)c2ccccc2)c1CC (stereo not drawn)
0.0
CCc1cc(OC)cc(C2=NC(S(=O)(=O)c3ccccc3)C(c3cccc(CC)c3CC)C2)c1 (stereo not drawn)
0.0
CCc1cccc(C2CC(c3ccc(C)cc3)=NC2S(=O)(=O)c2ccccc2C)c1CC (stereo not drawn) [PVZF0059]
1.0
Cc1ccc(C2=NC(S(=O)(=O)c3ccc(C)cc3)C(c3ccccc3C)C2)cc1 (stereo not drawn)
0.0
CCc1ccc(C2CC(c3ccc(C)cc3)=NC2S(=O)(=O)c2ccc(C)cc2)cc1 (stereo not drawn)
1.0
CCc1cccc(C2CC(c3ccc(C)cc3)=NC2S(C)(=O)=O)c1CC (stereo not drawn)
1.0
CCc1ccc(OC)cc1C1CC(c2ccc(C)cc2)=NC1S(=O)(=O)c1ccc(C)cc1 (stereo not drawn)
1.0

Query: Criterion: Polyglutamine strictly below 60%. Is it met by CCc1cccc(C2CC(c3ccc(C)cc3)=NC2S(=O)(=O)c2ccccc2)c1CC (stereo not drawn) ?
Response: 1.0

Query: Does CC(=O)c1cccc(C2CC(c3ccc(C)cc3)=NC2S(=O)(=O)c2ccc(C)cc2)c1 (stereo not drawn) have Polyglutamine strictly under 60%?
Response: 1.0

Query: Is it true that Polyglutamine reported for CCc1ccc(C2CC(c3ccc(C)cc3)=NC2S(=O)(=O)c2ccccc2)cc1 (stereo not drawn) is less than 60%?
Response: 0.0

Query: Does this molecule meet the criterion Polyglutamine < 60%? CCc1ccc(C2CC(c3ccc(C)cc3)=NC2S(=O)(=O)c2ccccc2)cc1CC (stereo not drawn)
Response: 1.0

Query: Please let me know if CCc1cccc(C2CC(c3cccc(C)c3)=NC2S(=O)(=O)c2ccccc2C)c1CC (stereo not drawn) shows Polyglutamine below 60%.
Response: 1.0

Query: Problem: For the molecule CCc1ccc(CC)c(C2CC(c3ccc(C)cc3)=NC2S(=O)(=O)c2ccccc2C)c1 (stereo not drawn) , is Polyglutamine under 60%?
Response: 1.0
